# Method Description: Acute toxicity on mice
# Assay type: in vivo
# Test Settings: mouse, in vivo, ip, 24 hours after administration; read-out: Estimated LD50
Quantity Measured: LD50 at 24 h

Before answering, review these 2 worked examples.
Cc1cnc(N2CCC(c3ccccc3)CC2)nc1N(C)C(=O)c1ccccc1: > 1000 mg/kg
CN(C(=O)c1ccccc1)c1nccc(N2CCCCC2)n1: < 500 mg/kg

Reported LD50 at 24 h, compound `CCCCN(CCCC)c1nccc(N(C)C(=O)c2ccccc2)n1` : ____
> 1000 mg/kg

Suppose we examine the compound `O=C(c1ccccc1)N(Cc1ccccc1)c1nccc(N2CCC(c3ccccc3)CC2)n1` ; what LD50 at 24 h value has been reported?
500 to 1000 mg/kg

Return reported LD50 at 24 h; argument: `CCCN(C(=O)c1ccccc1)c1ccnc(N2CCC(c3ccccc3)CC2)n1`
> 1000 mg/kg

Param item = `CN(C(=O)c1ccccc1)c1ccnc(N2CCC(CO)CC2)n1` ; retrieve measured LD50 at 24 h.
> 1000 mg/kg

What LD50 at 24 h value was documented for this compound, `CCCN(C(=O)c1ccccc1)c1nccc(N2CCC(c3ccccc3)CC2)n1` ?
> 1000 mg/kg

Fill in the blank: the reported LD50 at 24 h of CN(C(=O)c1ccccc1)c1ccnc(N2CCN(C(c3ccccc3)c3ccc(Cl)cc3)CC2)n1 (centres unmarked) is ____.
500 to 1000 mg/kg

Consider the compound `COc1ccc(C(=O)N(C)c2ccnc(N3CCC(c4ccccc4)CC3)n2)cc1` and give its measured LD50 at 24 h.
> 1000 mg/kg

Returns the measured LD50 at 24 h for the input compound. Input: `COC(=O)c1cnc(NC(C)C)nc1C.O=C(O)/C=C\C(=O)O`
500 to 1000 mg/kg

Sample `CN(C(=O)N1CCOCC1)c1ccnc(N2CCC(c3ccccc3)CC2)n1` — what was its LD50 at 24 h?
500 to 1000 mg/kg
